Tested on: Human peripheral blood-derived monocytes (CD14 positive cells)
Assay: LPS-dependent inflammatory cytokine production in human peripheral blood-derived monocytes (ELISA)
Assay type: cell-based
Details: LPS 0.125 ng/mL + 1.25, 2.5, or 5.0 μM ganglioside, 18 hours (FIG. 8)

compound: CCCCCCCCCCCCCC=CC(O)C(COC1OC(CO)C(OC2OC(CO)C(O)C(OC3(C(=O)O)CC(O)C(NC(C)=O)C(C(O)C(O)CO)O3)C2O)C(O)C1O)NC(=O)CCCCCCCCCCCCCCC (stereo not drawn)
system_tested: Human peripheral blood-derived monocytes (CD14 positive cells)
production of IL-6 by LPS: inhibiting

compound: CCCCCCCCCCCCCC=CC(O)C(COC1OC(CO)C(OC2OC(CO)C(O)C(OC3(C(=O)O)CC(O)C(NC(C)=O)C(C(O)C(O)CO)O3)C2O)C(O)C1O)NC(=O)CCCCCCCCCCCCCCCCC (stereo not drawn)
system_tested: Human peripheral blood-derived monocytes (CD14 positive cells)
production of IL-6 by LPS: inhibiting

src = patent US10849926B2
